assay.info: DTNB assay: rate of disulfide bond reduction
Type: biochemical
Set-up: unit not given here
conditions: pH 7.5; 2nd order kinetic
Where a name gives a salt, the structure may show the parent alone.
Kindly state Kinetic Reaction Rates of Reduction of DTNB for each of the entries shown.
A bare number is all that is needed in reply.

Problem: State, in one line, measured Kinetic Reaction Rates of Reduction of DTNB of CC(C)(C)OC(=O)NCCOc1ccc(CS)c(CS)c1 [I]
Solution: 7265

Problem: State, in one line, measured Kinetic Reaction Rates of Reduction of DTNB of NCCCC[C@H](N)C(=O)NCCCC[C@H](N)C(=O)NCCOc1ccc(CS)c(CS)c1 [S]
Solution: 15469

Problem: State, in one line, measured Kinetic Reaction Rates of Reduction of DTNB of OC[C@@H](O)[C@@H](O)[C@H](O)[C@@H](O)CNCCOc1ccc(CS)c(CS)c1 [Compound O, hydrochloride]
Solution: 13547

Problem: State, in one line, measured Kinetic Reaction Rates of Reduction of DTNB of CC(=O)N[C@@H](CS)C(=O)O [NAC, N-acetyl cysteine, reference compound]
Solution: 230

Problem: State, in one line, measured Kinetic Reaction Rates of Reduction of DTNB of N=C(N)NCCCC[C@H](N)C(=O)NCCOc1ccc(CS)c(CS)c1 [C]
Solution: 17317

Problem: State, in one line, measured Kinetic Reaction Rates of Reduction of DTNB of O[C@H](CS)[C@H](O)CS (racemic) [DTT, dithiothreitol, reference compound]
Solution: 2088

Problem: State, in one line, measured Kinetic Reaction Rates of Reduction of DTNB of N=C(N)NCCCC[C@H](N)C(=O)NCCCC[C@H](N)C(=O)NCCOc1ccc(CS)c(CS)c1 [E, Hydrochloride]
Solution: 17109

Problem: State, in one line, measured Kinetic Reaction Rates of Reduction of DTNB of CN(C)CCOc1ccc(CS)c(CS)c1 [Q, hydrochloride]
Solution: 15927

Problem: State, in one line, measured Kinetic Reaction Rates of Reduction of DTNB of CCCCCCN(CCOc1ccc(CS)c(CS)c1)C[C@H](O)[C@@H](O)[C@H](O)[C@H](O)CO [P, hydrochloride]
Solution: 13243

Problem: State, in one line, measured Kinetic Reaction Rates of Reduction of DTNB of NCCCC[C@@H](N)C(=O)NCCOc1ccc(CS)c(CS)c1 [Compound V, Hydrochloride]
Solution: 10043

Problem: State, in one line, measured Kinetic Reaction Rates of Reduction of DTNB of OC[C@@H](O)[C@@H](O)[C@H](O)[C@@H](O)CN(CCOc1ccc(CS)c(CS)c1)C[C@H](O)[C@@H](O)[C@H](O)[C@H](O)CO [N, hydrochloride]
Solution: 9532

Problem: State, in one line, measured Kinetic Reaction Rates of Reduction of DTNB of N=C(N)NCCOc1ccc(CS)c(CS)c1 [LL]
Solution: 8241

Problem: State, in one line, measured Kinetic Reaction Rates of Reduction of DTNB of N=C(NCCOc1ccc(CS)c(CS)c1)NC(=O)c1nc(Cl)c(N)nc1N [R, hydrochloride]
Solution: 16870

Problem: State, in one line, measured Kinetic Reaction Rates of Reduction of DTNB of CC(=O)NCCCC[C@H](N)C(=O)NCCOc1ccc(CS)c(CS)c1 [Compound K]
Solution: 9143

Problem: State, in one line, measured Kinetic Reaction Rates of Reduction of DTNB of NCCOc1ccc(CS)c(CS)c1 [KK]
Solution: 13896

Problem: State, in one line, measured Kinetic Reaction Rates of Reduction of DTNB of N=C(N)NCCCC[C@@H](N)C(=O)NCCCN(CCCNC(=O)[C@H](N)CCCCNC(=N)N)CCOc1ccc(CS)c(CS)c1 [Z]
Solution: 18513

Problem: State, in one line, measured Kinetic Reaction Rates of Reduction of DTNB of NCCCC[C@H](N)C(=O)NCCOc1ccc(CS)c(CS)c1 [L]
Solution: 14566
